Molecular target: Factor X, P00742
Sequence (P00742 whole entry, looked up): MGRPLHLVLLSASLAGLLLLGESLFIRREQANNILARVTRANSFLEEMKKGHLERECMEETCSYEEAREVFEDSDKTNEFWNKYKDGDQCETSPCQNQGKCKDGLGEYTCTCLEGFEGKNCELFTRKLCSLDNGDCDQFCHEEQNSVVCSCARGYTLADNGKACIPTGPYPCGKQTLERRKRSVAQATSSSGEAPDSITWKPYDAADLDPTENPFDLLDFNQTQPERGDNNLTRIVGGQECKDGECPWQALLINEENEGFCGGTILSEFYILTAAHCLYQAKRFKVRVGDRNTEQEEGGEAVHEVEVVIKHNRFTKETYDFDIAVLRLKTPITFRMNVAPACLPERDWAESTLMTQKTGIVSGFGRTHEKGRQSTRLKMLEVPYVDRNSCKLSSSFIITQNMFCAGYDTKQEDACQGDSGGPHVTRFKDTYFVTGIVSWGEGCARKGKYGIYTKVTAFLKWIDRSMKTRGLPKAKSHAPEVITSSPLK
Listed proteins paired with reported kcat/KM
Value expressed in M⁻¹ s⁻¹; do not type the unit.

Recorded kcat/KM, per entry:
[
  {
    "protein": "FIXa-K247N/N249S/R318Y/R403E/E410N (protein) chain 1: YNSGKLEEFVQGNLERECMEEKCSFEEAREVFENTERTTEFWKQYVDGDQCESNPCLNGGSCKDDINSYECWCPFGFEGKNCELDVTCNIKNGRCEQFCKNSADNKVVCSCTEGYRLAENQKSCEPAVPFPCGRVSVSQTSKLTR chain 2: VVGGEDAKPGQFPWQVVLNGKVDAFCGGSIVNEKWIVTAAHCVETGVKITVVAGEHNIEETEHTEQNRSVIRIIPHHNYNAAINKYNHDIALLELDEPLVLNSYVTPICIADKEYTNIFLKFGSGYVSGWGRVFHKGYSALVLQYLRVPLVDRATCLRSTKFTIYNNMFCAGFHEGGRDSCQGDSGGPHVTEVEGTSFLTGIISWGEECAMKGKYGIYTKVSEYVNWIKNKTKLT",
    "kcat/KM / M⁻¹ s⁻¹": "2.7e+07"
  },
  {
    "protein": "FIXa-Y155F/R318Y/R338E/T343R/E410N (protein) chain 1: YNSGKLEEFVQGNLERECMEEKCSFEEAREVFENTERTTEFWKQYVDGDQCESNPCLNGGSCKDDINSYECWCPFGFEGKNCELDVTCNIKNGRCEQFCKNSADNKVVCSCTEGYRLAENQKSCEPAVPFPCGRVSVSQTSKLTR chain 2: VVGGEDAKPGQFPWQVVLNGKVDAFCGGSIVNEKWIVTAAHCVETGVKITVVAGEHNIEETEHTEQKRNVIRIIPHHNYNAAINKYNHDIALLELDEPLVLNSYVTPICIADKEYTNIFLKFGSGYVSGWGRVFHKGYSALVLQYLRVPLVDRATCLESTKFRIYNNMFCAGFHEGGRDSCQGDSGGPHVTEVEGTSFLTGIISWGEECAMKGKYGIYTKVSRYVNWIKNKTKLT",
    "kcat/KM / M⁻¹ s⁻¹": "3.7e+08"
  }
]

input: Consider the protein shown here: FIXa-K247N/N249S/N260S/R318Y/R338E/R403E/E410N (protein) chain 1: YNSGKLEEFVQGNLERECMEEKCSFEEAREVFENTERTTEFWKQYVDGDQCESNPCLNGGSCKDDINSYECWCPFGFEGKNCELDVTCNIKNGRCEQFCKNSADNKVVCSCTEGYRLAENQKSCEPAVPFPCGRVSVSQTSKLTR chain 2: VVGGEDAKPGQFPWQVVLNGKVDAFCGGSIVNEKWIVTAAHCVETGVKITVVAGEHNIEETEHTEQNRSVIRIIPHHNYSAAINKYNHDIALLELDEPLVLNSYVTPICIADKEYTNIFLKFGSGYVSGWGRVFHKGYSALVLQYLRVPLVDRATCLESTKFTIYNNMFCAGFHEGGRDSCQGDSGGPHVTEVEGTSFLTGIISWGEECAMKGKYGIYTKVSEYVNWIKNKTKLT What is its recorded kcat/KM?
output: 9.7e+07

input: Consider the protein shown here: FIXa-K228N/K247N/N249S (protein) chain 1: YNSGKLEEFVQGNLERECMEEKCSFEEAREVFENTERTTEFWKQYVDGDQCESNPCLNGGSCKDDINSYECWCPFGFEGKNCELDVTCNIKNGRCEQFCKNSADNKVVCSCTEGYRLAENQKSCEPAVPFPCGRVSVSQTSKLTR chain 2: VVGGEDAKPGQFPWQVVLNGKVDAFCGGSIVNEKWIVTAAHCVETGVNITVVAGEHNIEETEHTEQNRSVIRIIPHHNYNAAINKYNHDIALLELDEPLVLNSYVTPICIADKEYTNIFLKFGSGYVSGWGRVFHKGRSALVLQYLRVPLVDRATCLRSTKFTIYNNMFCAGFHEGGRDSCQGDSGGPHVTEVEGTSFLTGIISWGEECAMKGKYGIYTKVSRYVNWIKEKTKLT What is its recorded kcat/KM?
output: 3.8e+07

input: Consider the protein shown here: FIXa-D203N/F205T/R318Y/E410N (mature FIX numbering) (protein) chain 1: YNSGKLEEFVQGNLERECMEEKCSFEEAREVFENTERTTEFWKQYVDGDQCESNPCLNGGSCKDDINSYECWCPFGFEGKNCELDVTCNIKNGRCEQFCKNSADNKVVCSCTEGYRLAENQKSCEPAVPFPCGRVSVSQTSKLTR chain 2: VVGGEDAKPGQFPWQVVLNGKVNATCGGSIVNEKWIVTAAHCVETGVKITVVAGEHNIEETEHTEQKRNVIRIIPHHNYNAAINKYNHDIALLELDEPLVLNSYVTPICIADKEYTNIFLKFGSGYVSGWGRVFHKGYSALVLQYLRVPLVDRATCLRSTKFTIYNNMFCAGFHEGGRDSCQGDSGGPHVTEVEGTSFLTGIISWGEECAMKGKYGIYTKVSRYVNWIKNKTKLT What is its recorded kcat/KM?
output: 3.9e+07

input: Consider the protein shown here: FIXa-K228N/R318Y/R338E/R403E/E410N (protein) chain 1: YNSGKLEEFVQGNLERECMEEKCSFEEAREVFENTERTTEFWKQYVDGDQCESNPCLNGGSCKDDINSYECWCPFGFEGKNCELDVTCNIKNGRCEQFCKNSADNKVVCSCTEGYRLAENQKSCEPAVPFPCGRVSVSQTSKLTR chain 2: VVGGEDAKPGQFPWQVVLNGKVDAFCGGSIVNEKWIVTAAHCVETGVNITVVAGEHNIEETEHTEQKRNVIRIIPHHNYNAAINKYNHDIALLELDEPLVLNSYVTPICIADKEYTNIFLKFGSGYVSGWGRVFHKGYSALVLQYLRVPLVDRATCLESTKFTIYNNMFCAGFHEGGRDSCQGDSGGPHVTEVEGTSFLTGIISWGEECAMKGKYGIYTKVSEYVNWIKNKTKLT What is its recorded kcat/KM?
output: 1.6e+08

input: Consider the protein shown here: FIXa-Y155F/K247N/N249S/R318Y/R338E/R403E (protein) chain 1: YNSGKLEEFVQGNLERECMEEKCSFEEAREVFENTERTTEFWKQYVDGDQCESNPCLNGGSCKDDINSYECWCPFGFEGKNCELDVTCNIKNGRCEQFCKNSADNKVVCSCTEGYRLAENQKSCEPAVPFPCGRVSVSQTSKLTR chain 2: VVGGEDAKPGQFPWQVVLNGKVDAFCGGSIVNEKWIVTAAHCVETGVKITVVAGEHNIEETEHTEQNRSVIRIIPHHNYNAAINKYNHDIALLELDEPLVLNSYVTPICIADKEYTNIFLKFGSGYVSGWGRVFHKGYSALVLQYLRVPLVDRATCLESTKFTIYNNMFCAGFHEGGRDSCQGDSGGPHVTEVEGTSFLTGIISWGEECAMKGKYGIYTKVSEYVNWIKEKTKLT What is its recorded kcat/KM?
output: 9.5e+07
